- System: windgrass (Apera spica-venti)
- assay.protocol: Test C postemergence: windgrass
- Format: in vivo
- test.context: 62 g ai/ha, scale 0 to 100 (0 no effect, 100 complete control)

{"columns": ["compound", "assayed.system", "Plant response rating, Windgrass"],
 "data": [
  ["Cc1nn(-c2ccc(C(F)(F)F)cn2)nc1Oc1ccnc(C(F)(F)F)c1 [Compound 23]", "windgrass (Apera spica-venti)", 15],
  ["FC(F)(F)COc1nn(-c2ccc(C(F)(F)F)cc2)nc1Cc1ccnc(C(F)(F)F)c1 [Compound 14]", "windgrass (Apera spica-venti)", 90],
  ["Cc1nn(-c2ccc(C(F)(F)F)cn2)nc1Cc1cccc(C(F)(F)F)c1 [Compound 106]", "windgrass (Apera spica-venti)", 65],
  ["COc1nn(-c2ccc(C(F)(F)F)cc2)nc1Cc1ccnc(C(F)(F)F)c1 [Compound 15]", "windgrass (Apera spica-venti)", 85]
]}

###

Quick list: Plant response rating, Oat, Wild per entry.
- Tested on: wild oat (Avena fatua)
- assay.protocol: Test C pre-/postemergence: wild oat
- Type: in vivo
- test.context: Preemergence, 250 g ai/ha; scale 0 to 100, 0 no effect, 100 complete control
observed.property: Plant response rating, Oat, Wild

{"columns": ["mol.smiles", "quantitative.result"],
 "data": [
  ["Cc1nn(-c2ccc(C(F)(F)F)cn2)nc1Cc1cccc(C(F)(F)F)c1", 80],
  ["Cc1nn(-c2ccc(F)cc2F)nc1Oc1ccnc(C(F)(F)F)c1", 90],
  ["FC(F)(F)COc1nn(-c2ccc(C(F)(F)F)cc2)nc1Cc1ccnc(C(F)(F)F)c1", 90],
  ["COc1nn(-c2cccc(F)c2)nc1Cc1ccnc(C(F)(F)F)c1", 85]
]}

###

Quick list: Plant response rating, Ryegrass, Italian per entry.
- Tested on: ryegrass, Italian (Italian ryegrass, Lolium multiflorum)
- assay.protocol: Test C pre-/postemergence: ryegrass, Italian
- Type: in vivo
- test.context: Preemergence, 62 g ai/ha; scale of 0 to 100, 0 is no effect, 100 is complete control

{"columns": ["mol.smiles", "assayed.system", "Plant response rating, Ryegrass, Italian"],
 "data": [
  ["Cc1nn(-c2ccc(C(F)(F)F)cn2)nc1Oc1ccnc(C(F)(F)F)c1", "ryegrass, Italian (Italian ryegrass, Lolium multiflorum)", 5],
  ["CCOCc1nn(-c2ccc(F)cc2)nc1Oc1ccnc(C(F)(F)F)c1", "ryegrass, Italian (Italian ryegrass, Lolium multiflorum)", 45],
  ["Fc1ccc(-n2nc(Cc3ccnc(C(F)(F)F)c3)c(OC(F)F)n2)cc1", "ryegrass, Italian (Italian ryegrass, Lolium multiflorum)", 35],
  ["FCc1nn(-c2ccc(F)cc2)nc1Oc1ccnc(C(F)(F)F)c1", "ryegrass, Italian (Italian ryegrass, Lolium multiflorum)", 80],
  ["FC(F)Oc1nn(-c2ccc(C(F)(F)F)cc2)nc1Cc1ccnc(C(F)(F)F)c1", "ryegrass, Italian (Italian ryegrass, Lolium multiflorum)", 60]
]}

###

Quick reference: Plant response rating, Field Violet of the listed items.
- System: field violet (Viola arvensis)
- assay.protocol: Test D pre-/postemergence: field violet
- Type: in vivo
- test.context: Postemergence; 16 g ai/ha; scale 0 to 100

{"columns": ["mol.smiles", "Plant response rating, Field Violet"],
 "data": [
  ["Cc1nn(-c2ccc(C(F)(F)F)c(F)c2)nc1Oc1ccnc(C(F)(F)F)c1", 90],
  ["CCOc1nn(-c2ccc(F)cc2)nc1Cc1ccnc(C(F)(F)F)c1", 80],
  ["Cc1nn(-c2ccc(C(F)(F)F)cc2)nc1Oc1ccnc(C(F)(F)F)c1", 70],
  ["Cc1nn(-c2ccc(F)c(C(F)(F)F)c2)nc1Cc1ccnc(C(F)(F)F)c1", 95],
  ["CCc1nn(-c2ccc(C(F)(F)F)cc2)nc1Cc1ccnc(C(F)(F)F)c1", 95]
]}
